biological target: T1, human GLP-1 receptor (human, UniProt P43220 24-463); test: SPA, displacement of 125I-GLP-1(7-36)NH2, 0.005% HSA
T1 construct: whole, on cells; Used as purified membranes of the transfected hamster cells, not whole cells; also called hGLP-1
pIC50: −log10 of the molar value. *1 amine or outer side, *2 acyl side, *3 side chain or, on linkers, in order; H or OH if unused. Where no end group is shown, it is not given here. Side-chain parts run from the residue outwards. [ ]: non-standard residue; d: D form. The star is where a group is joined. Decanoyl(10-(4-HOOC-PhO)) = O=C(O)c1ccc(OCCCCCCCCCC(=O)*)cc1; γGlu = O=C(O)[C@H](CCC(=O)[*:2])N[*:1]; Desaminohistidyl = O=C(CCc1c[nH]cn1)*; C12 diacid = O=C(O)CCCCCCCCCCC(=O)*; 13‑carboxytridecanoyl = C14 diacid; AEEA = NCCOCCOCC(=O)O; Aib = CC(C)(N)C(=O)O

binder	pIC50
H[Aib]EGTFTSDVSK([AEEA-AEEA-13‑carboxytridecanoyl])YLEEQAAK([AEEA-AEEA-13‑carboxytridecanoyl])EFIAWLVQGRG [GLP-1 derivative of Example 84: [Aib8,Lys18,Glu22,Gln34]-GLP-1-(7-37)-peptide]	> 6.00
H[Aib]EGTFTSDVSKYLEEQAVREFIAKLVRGRG (not fully specified (residues 12, 25)) [GLP-1 derivative of Example 137: [Aib8,Lys18,Glu22,Val25,Arg26,Lys31,Arg34]-GLP-1-(7-37)-peptide]	> 6.00
H[Aib]EGTFTSDVSK([AEEA-AEEA-AEEA-AEEA-γGlu-Decanoyl(10-(4-HOOC-PhO))])YLEEQAAK([AEEA-AEEA-AEEA-AEEA-γGlu-Decanoyl(10-(4-HOOC-PhO))])EFIAWLVQGRG [GLP-1 derivative of Example 69: [Aib8,Lys18,Glu22,Gln34]-GLP-1-(7-37)-peptide]	> 6.00
[Desaminohistidyl][Aib]EGTFTSDVSK([AEEA-AEEA-γGlu-C12 diacid])YLEEQAVREFIAK([AEEA-AEEA-γGlu-C12 diacid])LVG [GLP-1 derivative of Example 22: [Imp7,Aib8,Lys18,Glu22,Val25,Arg26,Lys31,Gly34]-GLP-1-(7-34)-peptide]	> 6.00
